Assay: yeast display, Sf9 membrane polyspecificity reagent, FACS + sequencing; frameworks hold sequencing errors
reported endpoint: polyreactivity (PSR sort gate)

[
  {
    "sequence": "QVQLVESGGGLVQAGGSLRLSCAASGFIFVVNAMGWYRQAPGKEREFVAVISSSTGSTYYADSVKGRFTISRDNAKNTVYLQMNSLKPEDTAVYYCAAASRRRRPLNRMDYWGQGTQVTVSS",
    "polyreactivity (PSR sort gate)": "low polyreactivity"
  },
  {
    "sequence": "QVQLVESGGGLVQAGGSLRLSCAASGSNFAVYAMGWYRQAPGKERELVATIRWNGGSTYYADSVKGRFTISRDNAKNTVYLQMNSLKQEDTAVYYCAKEYSTYVSKKSAYRYYYWGQGTQVTVSS",
    "polyreactivity (PSR sort gate)": "high polyreactivity"
  },
  {
    "sequence": "QVQLVETGGGLVQAGGSLRLSCAASGLTFIEYAMGWYRQAPGKERELVAAISSGGRTYYADSVKGRFTISRDNAKNTVYLQMNSLKPEDTAVYYCNARGYRRWYNYWGQGTQVTVSS",
    "polyreactivity (PSR sort gate)": "high polyreactivity"
  },
  {
    "sequence": "QVQLVESGGGLVQAGGSLRLSCAASGRTFSGNAMGWYRQAPGKERELVAGISTSGGSTYYADSVKGRFTISRDNANNTVYVQMNSLKPEDTAVYYCAADRPGSFTTMDYWGQGSQVTVSS",
    "polyreactivity (PSR sort gate)": "high polyreactivity"
  }
]

Recorded polyreactivity (PSR sort gate) for `QVQLVESGGGLVQAGGSLRLSCAASGRIFSTNARGWYRQAPGKQRELVAVITGIGGITYYADSVKGRFTISSDNAKNTVYLKMNSLKPEDTAVYYCGADPISEFYWGVKDRYDYWGQGTQVTVSS` , please? low polyreactivity

====

Experiment: yeast display, Sf9 membrane polyspecificity reagent, FACS + sequencing; frameworks hold sequencing errors
reported endpoint: polyreactivity (PSR sort gate)

Here are 8 sequences together with their reported answers.
[
  {
    "sequence": "QVQLVESGGGLVQAGGSLRLSCPDSVFTFGATVMGWYRQAPGKEREFVAGITWSGDSTYYADSVKGRFTISRDNAKNTVYFQMNSLKPEDTAVYYCAADVYDGAYILDYDYWGQGTQVTVSS",
    "polyreactivity (PSR sort gate)": "low polyreactivity"
  },
  {
    "sequence": "QVQLVESGGGLVQAGGSLRLSCAASGFIFRDNAMGWSRQAPGKERELVAAISKSGGRTYYADSVKGRFTISRDNAKNTVYLQMNSLKPEETAVYYCAKASRYWSLYYWGQGSQVTVSS",
    "polyreactivity (PSR sort gate)": "high polyreactivity"
  },
  {
    "sequence": "QVQLVESGGGLVQAGGSLRLSCAASGSIFVGNGMGWYRQAPGKERELVAAITFRSGSTYYADSVKGRFTISRDNAKNTVYFQMISMKPEDTAVSYCAADEYYQVYAYDYCGQGTQVTVSS",
    "polyreactivity (PSR sort gate)": "low polyreactivity"
  },
  {
    "sequence": "QVHLVESGGGLDQAGGSLRLSCAASGRTFKSYTMGWYRQAPGKEREFVAAISSRGGNTYYADSVKGRFTISRDNAKNTVYLQMNSLKPEDTAVYYCAAESSYWSFPTYDYWGQGTQVTVSS",
    "polyreactivity (PSR sort gate)": "high polyreactivity"
  },
  {
    "sequence": "QVQRVETGGGLVQAGGSLRLSSAASGSTLPGNTMGWYRQAPGKERELVAAISKSGGTTYYADSVKGRFTISRDNAKNTVYLQMNCLKPEDTAVYYCAAKPWVWVYARYGKHPSYDYWGQGTQVTVSS",
    "polyreactivity (PSR sort gate)": "high polyreactivity"
  },
  {
    "sequence": "QVQLVESGGGLVQEGGSLRLSCAASGIIFRVYAMGWYRQAPGKERELVATITYSGGITYYADSVKGRFTISRVNAKNTVYLQMNSLKQEDTAGYYPIGVGGDYDYWGQGTQVSVSS",
    "polyreactivity (PSR sort gate)": "low polyreactivity"
  },
  {
    "sequence": "QVQLVESGGGLVQAGGSLRLSCAASGSIFYYYPMGWYRQAPGKERELVAAINSVGSTYADSVKGRFTISRDNAKNTVYLQMNSLKPEDSAVYYCENYYWGQGTQVTVSS",
    "polyreactivity (PSR sort gate)": "low polyreactivity"
  },
  {
    "sequence": "QVQLVESGGGLVQAGGSLRLSCAASGSIFYNNAMGWYRQAPGKERELVAAISWRGGSTYYADSVKGRFTISRDNAKNTVYLQMNSLKPEDTAVYYCNAGVRYRGFDYWGQGTQVTVSS",
    "polyreactivity (PSR sort gate)": "high polyreactivity"
  }
]

Recorded polyreactivity (PSR sort gate) for `QVQLVESGGGLVQAGGSLRLSCAASGPTFDVYAMGWYRQAPGKERELVATISWRGTSTYYADSVKGRFTISRDNAKNTVYLQMNSLKPEDTAVYYCAAEVYYEYYYWRYYWGQGTQVTVSS` , please? high polyreactivity

Recorded polyreactivity (PSR sort gate) for `QVQLVESGGGLVQAGGSLRLSCAASGRTFKYYAKGWYRQAPGKERELVAAINSGGITYYADTVKGRFTISRDNEKNTVYLQRNSLKAEDTAVYYCAKVWKIGVLRYPSYGYYYWGQGTQVTVSS` , please? high polyreactivity

Recorded polyreactivity (PSR sort gate) for `QVQLVESGGGLVQAGGSLRLTSAASGFTFYPYAMGWYRQATGKEMELVAAINSGGSTYYADSVKGRFTISRDNAKNSVYLQMNSLKPEDTAVYYCAAYGKRGAVAFYYWGQGTQVTVSS` , please? high polyreactivity
